Tested on: normal canines
Assay: Hemodynamic efficacy in normal canines (pressure-volume loop analysis)
Assay type: in vivo, beagle dogs
Conditions: i.v. infusion, Dose Rate (μmol/kg/min): CXL-1020 100, (1) 50, (2) 100, (83) 65, (84) 77
Would you kindly list SW for each of these molecules?
// units = % Change from Baseline; emit number, no label

// query Record lookup: for normal canines, what SW belongs to Cc1ccc(S(=O)(=O)NO)s1 [Compound 84] ?
// result −13.98

// query Record lookup: for normal canines, what SW belongs to O=S(=O)(NO)c1ccco1 [Compound 83, N-Hydroxyfuran-2-sulfonamide] ?
// result −19.18

// query Record lookup: for normal canines, what SW belongs to Cc1ccc(S(=O)(=O)NO)o1 [Compound 1, N-Hydroxy-5-methylfuran-2-sulfonamide] ?
// result −11

// query Record lookup: for normal canines, what SW belongs to CS(=O)(=O)c1ccccc1S(=O)(=O)NO [CXL-1020, reference compound] ?
// result −13.96

// query Record lookup: for normal canines, what SW belongs to CS(=O)(=O)c1cccc(S(=O)(=O)NO)c1 [Compound 2] ?
// result −17.56
